Cited source: the supplement of paper PMC10567573

Entries annotated with measured protein stability index
B1: PLK2 (parent)
chain: YAELGQCSVFPATDAPEQFISQVT

# Variants of: B1
# method notes: protein stability index of a GFP-peptide fusion (GPS, HEK-293T) (PSI 1-6); higher = more stable;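 note: lentivirally expressed fusions sorted by FACS into six bins by GFP to DsRed ratio, PSI derived from sequencing read proportions per bin multiplied by bin number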
# protocol conditions: c terminus: a fixed tail appended
The reply should be a number, written without any unit.

Given the entry `Q18V` , report its measured protein stability index.
2.49

Given the entry `T13V` , report its measured protein stability index.
2.2

Given the entry `Y1M` , report its measured protein stability index.
3.63

Given the entry `I20F` , report its measured protein stability index.
2.54

Given the entry `Y1H` , report its measured protein stability index.
4
